assay: HepG2 cell viability effects, profiling panel, calcein-AM fluorescence, 48 h, basal (AID 1164); settings: higher = more signal; note: test concentration not given here
property measured: z-score

Take a look at these entries with their results.
>  <molecule>
[N-]=[N+]=Nc1ccccc1[C@@H]1OC(c2ccc(OCCCO)cc2)=N[C@]1(Cc1ccccc1)C(=O)NCc1ccccc1

>  <z-score>
-2.13

$$$$
>  <molecule>
Cc1ccc(S[C@]2(C(=O)NC(C)C)CC(=O)N(C(C)C)[C@@H]2c2ccc(CO)cc2I)cc1

>  <z-score>
0.0096

$$$$
>  <molecule>
CCOC(=O)C=Cc1ccccc1O

>  <z-score>
-0.944

$$$$
>  <molecule>
COc1cc(NN2C(C(O)c3cc(OC)c(OC)c(OC)c3)C=CC3C(=O)N(c4ccccc4)C(=O)C32)cc(OC)c1OC (stereo not drawn)

>  <z-score>
-0.455

$$$$

Report z-score for every entry below.
1. CCCCC(=C=CC[C@H](O)c1ccc(OCCO)cc1)C[C@H](O)COCc1ccccc1
2. COCCOC(=O)N1C(=O)[C@@]2(c3cc(C#CCC(C(=O)OC)C(=O)OC)ccc31)[C@H](c1ccc(O)cc1)N1[C@H](c3ccccc3)[C@H](c3ccccc3)OC(=O)[C@H]1[C@@H]2C(=O)NC[C@H](O)c1ccccc1
3. C=CCNC(=O)[C@@H]1[C@H]2C(=O)O[C@H](c3ccccc3)[C@H](c3ccccc3)N2[C@H](c2ccc(O)cc2)[C@@]12C(=O)Nc1ccc(C#CCC(C(=O)OC)C(=O)OC)cc12
4. CCCCC=C[C@@H](NC(=O)c1ccccc1)c1ccccc1

1. 0.528
2. -0.0754
3. -0.6
4. -1.02

Each recorded value in this set is attributed to PubChem BioAssay.
